Target: CDK6 (Homo sapiens (Human), UniProt Q00534)
Sequence (Q00534 whole entry): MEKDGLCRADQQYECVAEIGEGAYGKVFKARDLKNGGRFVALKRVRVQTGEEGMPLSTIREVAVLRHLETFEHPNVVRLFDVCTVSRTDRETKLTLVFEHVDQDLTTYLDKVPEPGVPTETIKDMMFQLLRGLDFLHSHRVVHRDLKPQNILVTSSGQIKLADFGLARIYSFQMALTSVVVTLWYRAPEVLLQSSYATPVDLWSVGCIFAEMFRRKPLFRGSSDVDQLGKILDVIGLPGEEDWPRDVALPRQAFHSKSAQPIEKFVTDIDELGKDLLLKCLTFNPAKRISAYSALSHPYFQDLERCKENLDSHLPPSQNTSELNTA
Sequence (P30281 whole entry partner): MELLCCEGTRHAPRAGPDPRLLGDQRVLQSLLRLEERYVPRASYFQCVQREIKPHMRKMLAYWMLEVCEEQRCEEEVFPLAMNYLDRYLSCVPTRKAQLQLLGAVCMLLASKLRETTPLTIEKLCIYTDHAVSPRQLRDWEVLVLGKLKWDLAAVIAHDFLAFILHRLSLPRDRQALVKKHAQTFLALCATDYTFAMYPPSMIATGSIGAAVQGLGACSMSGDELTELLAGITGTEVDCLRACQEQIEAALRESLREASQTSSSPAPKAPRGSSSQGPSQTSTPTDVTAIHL
Assay: Phospho-Serine 795 Rb ELISA assay in MV4-11 cells
Conditions: overnight treatment, phospho-Rb S795, read-out: CDK6 pRB S795 ELISA MV4-11 cells IC50
Listing of entries alongside the reported IC50.
Write it as a number; the unit nM goes unstated.

Input: Look up IC50 for this molecule: CC(C)n1c(CC2(N)CCCC2)nc2c(F)cc(-c3nc(N[C@@H]4CCOC[C@H]4O)ncc3Cl)cc21 [Example A59]
Output: 521

Input: Also Cc1nc2ccc(-c3nc(N[C@@H]4CCN(S(C)(=O)=O)C[C@H]4O)ncc3F)cc2n1C(C)C [Example A76] , if possible.
Output: 242

Input: Record: CC(C)(C)n1cnc2c(F)cc(-c3nc(N[C@@H]4CCN(C(=O)C5(F)CNC5)C[C@H]4O)ncc3Cl)cc21 [Example F26]
Output: 182

Input: Input Cc1nc2c(F)cc(-c3nc(N[C@@H]4CCN(S(C)(=O)=O)C[C@H]4O)ncc3Cl)cc2n1C1COC1 [Example A89]
Output: 570

====

Molecular target: CDK4 (Homo sapiens (Human), UniProt P11802)
Sequence (P11802 2-303): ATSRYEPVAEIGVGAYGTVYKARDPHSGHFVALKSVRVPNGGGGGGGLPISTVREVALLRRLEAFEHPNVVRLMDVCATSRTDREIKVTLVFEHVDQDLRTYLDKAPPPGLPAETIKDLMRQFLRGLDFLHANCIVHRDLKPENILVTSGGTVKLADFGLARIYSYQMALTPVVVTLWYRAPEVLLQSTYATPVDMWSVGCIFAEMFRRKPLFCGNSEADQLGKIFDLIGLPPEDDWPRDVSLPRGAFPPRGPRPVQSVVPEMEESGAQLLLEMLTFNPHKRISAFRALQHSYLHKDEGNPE
Sequence (P24385 whole entry partner): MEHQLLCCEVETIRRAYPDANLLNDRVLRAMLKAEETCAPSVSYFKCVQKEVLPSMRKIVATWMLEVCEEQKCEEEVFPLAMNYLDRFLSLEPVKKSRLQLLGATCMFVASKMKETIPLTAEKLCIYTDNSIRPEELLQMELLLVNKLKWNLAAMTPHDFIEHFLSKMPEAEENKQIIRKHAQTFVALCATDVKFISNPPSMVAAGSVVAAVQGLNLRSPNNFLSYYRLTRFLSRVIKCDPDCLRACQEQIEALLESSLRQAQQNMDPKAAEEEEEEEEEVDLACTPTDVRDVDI
Experiment: Phospho-Serine 795 Rb ELISA assay in JEKO-1 cells
Conditions: overnight treatment, phospho-Rb S795, read-out: CDK4 pRB S795 ELISA JEKO-1 cells IC50
# maps each entry to its IC50
Report the figure in nM without appending any unit label.

Input: Form: Entry = `CC(C)(C)n1cnc2c(F)cc(-c3nc(N[C@@H]4CCN(C(=O)C5(N)CC(F)(F)C5)C[C@H]4O)ncc3Cl)cc21` | System = CDK4 (Homo sapiens (Human), UniProt P11802) | IC50 = ____
Output: 66.1

Input: And the next one, `CC(C)n1cnc2c(F)cc(-c3nc(N[C@@H]4CCN(C(=O)C5(N)CC5)C[C@H]4O)ncc3Cl)cc21` ?
Output: 191

Input: Param item: `CC(C)n1cnc2c(Cl)cc(-c3nc(N[C@@H]4CCN(C(=O)[C@@H](C)O)C[C@H]4O)ncc3Cl)cc21`
Output: 155

Input: Cool, now `CC(C)n1cnc2c(F)cc(-c3nc(N[C@@H]4CCN(C(=O)C5COC5)C[C@H]4O)ncc3Cl)cc21`
Output: 31.7

====

Ki by entry:
Biological target: CDK6/Cyclin D3 (Homo sapiens (Human), UniProt Q00534)
Sequence (Q00534 whole entry): as the sequence (Q00534 whole entry) above
Sequence (P30281 whole entry partner): as the sequence (P30281 whole entry partner) above
Assay: CDK6/Cyclin D3 mobility shift assay
Settings: activated CDK6/Cyclin D3, 3.5 mM ATP, Morrison fit; read-out: CDK6_D3 Ki
Your answer is read as nM, so omit the unit and give the number.

# molecule, Ki / nM
data = [
    ("CC(C)n1c(CN)nc2c(F)cc(-c3nc(N[C@@H]4CCOC[C@H]4O)ncc3Cl)cc21", 37.5),
]

Input: Entry `Cc1nc2ccc(-c3cc(N[C@@H]4CCOC[C@H]4O)ncc3Cl)nc2n1C(C)C` : reported Ki = ?
Output: 39.4

Input: Another molecule: `CC(C)n1c([C@@H](C)O)nc2c(F)cc(-c3nc(N[C@@H]4CCNC[C@H]4O)ncc3Cl)cc21`
Output: 110

Input: Input `COCc1nc2c(F)cc(-c3nc(N[C@@H]4CCN(S(C)(=O)=O)C[C@H]4O)ncc3Cl)cc2n1C(C)C`
Output: 5

Input: Moving on to the next molecule: `C[C@H](O)C(=O)N1CC[C@@H](Nc2ncc(Cl)c(-c3cc(F)c4ncn(C(C)(C)C)c4c3)n2)[C@H](O)C1`
Output: 7.7

Input: Try the molecule `Cc1nc2c(F)cc(-c3nc(N[C@@H]4CCN(S(C)(=O)=O)C[C@H]4O)ncc3F)cc2n1C1CNC1`
Output: 80.4

Input: Then `CC(C)n1c(C(C)(C)O)nc2c(F)cc(-c3nc(N[C@@H]4CCOC[C@H]4O)ncc3F)cc21` ?
Output: 14.3

Input: Let us now turn to `CC(C)NCc1nc2c(F)cc(-c3nc(N[C@@H]4CCN(S(C)(=O)=O)C[C@H]4O)ncc3Cl)cc2n1C(C)C`
Output: 16.4

Input: Same question for COC(=O)N1CC[C@@H](Nc2ncc(Cl)c(-c3cc(F)c4ncn(C5CCOC5)c4c3)n2)[C@H](O)C1 (single isomer, unassigned) [Example F02] please.
Output: 39.9

Input: Would you mind doing `Cc1nc2c(F)cc(-c3nc(N[C@@H]4CCN(C(=O)CO)C[C@H]4O)ncc3F)cc2n1C(C)C` as well?
Output: 8.3

Input: Can you check `CC(C)n1cnc2c(F)cc(-c3nc(N[C@@H]4CCN(C(=O)C5COC5)C[C@H]4O)ncc3Cl)cc21` next?
Output: 10.1

Input: Can you check `CC(C)n1c(C(F)F)nc2c(F)cc(-c3nc(N[C@@H]4CCN(S(C)(=O)=O)C[C@H]4O)ncc3Cl)cc21` next?
Output: 4.9
